experiment: Aqueous solubility of the compound at pH 2 by HPLC analysis; type: physicochemical; details: aqueous solution
reported_property: solubility (µM)
Write it as a number; the unit µM goes unstated.

Example results:
compound: Fc1ccc(CCN2CCC3(CCc4ccc5ccccc5c4O3)CC2)cc1F
solubility (µM): 20
//
compound: O=C(CN1CCC2(CCc3ccc4ccccc4c3O2)CC1)c1ccc(F)c(F)c1
solubility (µM): 20
//
compound: OC1CC2(CCNCC2)Oc2c1ccc1ccccc21 (configuration not stated)
solubility (µM): 40
//
compound: O=C1CC2(CCN(CCC3CCCCC3)CC2)Oc2c1ccc1ccccc21
solubility (µM): 20
//
compound: OC(CN1CCC2(CCc3ccc4ccccc4c3O2)CC1)c1ccc(F)c(F)c1 (configuration not stated)
solubility (µM): 40
//
compound: OC1CC2(CCN(CCC3CCCCC3)CC2)Oc2c1ccc1ccccc21 (configuration not stated)
solubility (µM): 40

Using the record for `c1ccc2c3c(ccc2c1)CCC1(CCNCC1)O3` , state its measured solubility.
40

Data provenance: ChEMBL document CHEMBL5131470
